System: U2OS
Experiment: Multiplex assay against U2OS
Format: toxicity, cell-based
Details: human, 24 h, 10 µM, compound concentration 10 uM, replicate 1
reported-endpoint: Population Mitotic Cells (%)

- compound: "CN1C(=O)[C@@H](NC(=O)c2cc3ccccc3[nH]2)N=C(c2ccccc2)c2ccccc21 [DEVAZEPIDE]"
  system-tested: "U2OS"
  Population Mitotic Cells (%): "12%"
- compound: "CCCCN(CC)c1nc(C)nc2c1c(C)cn2-c1c(C)cc(C)cc1C.Cl"
  system-tested: "U2OS"
  Population Mitotic Cells (%): "32%"
- compound: "CCOC(=O)CCNc1cc(N2CCc3ccccc3CC2)nc(-c2ccccn2)n1"
  system-tested: "U2OS"
  Population Mitotic Cells (%): "35%"
- compound: "Cc1ccc(S(=O)(=O)NC2c3ccccc3Oc3ccccc32)cc1"
  system-tested: "U2OS"
  Population Mitotic Cells (%): "28%"
- compound: "CS(=O)(=O)N1CCCC(NC(=O)[C@H](CCC2CCCCC2)NC(=O)c2ccc(CNC(=O)c3cnc4ccccn34)cc2)C1 (some centres not stated)"
  system-tested: "U2OS"
  Population Mitotic Cells (%): "51% [middle of 4 runs]"
- compound: "CC(C)[C@H](CO)Nc1nc(Nc2cccc(Cl)c2)c2ncn(C(C)C)c2n1"
  system-tested: "U2OS"
  Population Mitotic Cells (%): "32%"
- compound: "CC[C@H](Nc1ncnc2[nH]cnc12)c1nc2cccc(F)c2c(=O)n1-c1ccccc1"
  system-tested: "U2OS"
  Population Mitotic Cells (%): "66%"
- compound: "CCCCCNC(=N)N/N=C/c1c[nH]c2ccc(OC)cc12.O=C(O)/C=C\\C(=O)O [TEGASEROD MALEATE]"
  system-tested: "U2OS"
  Population Mitotic Cells (%): "14%"

Look up and report measured Population Mitotic Cells (%) (U2OS) for the following compound: Cc1c(Nc2ccc(S(=O)(=O)N3CCN(C)CC3)cc2F)nc2ccc(Nc3cnn(C4CC4)c3)cn2c1=O
50%

Determine reported Population Mitotic Cells (%) for C[C@@H](Oc1cc(-n2cnc3ccc(CN4CCN(C)CC4)cc32)sc1C(N)=O)c1ccccc1C(F)(F)F ; test system: U2OS.
9%

// fetch Population Mitotic Cells (%); item: CC(Cc1ccc(O)c(O)c1)C(C)Cc1ccc(O)c(O)c1 (configuration not stated) [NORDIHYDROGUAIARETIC ACID] ; system: U2OS
38%

Specify Population Mitotic Cells (%) for CC(C)c1cc(Nc2nc(N3CCC[C@H](N)C3)ncc2C(N)=O)cc(C(C)C)n1 , system U2OS.
25%

State Population Mitotic Cells (%) (U2OS) of CCOc1ccn(-c2ccc(F)cc2)c(=O)c1C(=O)Nc1ccc(Oc2ccnc(N)c2Cl)c(F)c1 .
73%

State measured Population Mitotic Cells (%) of the compound C=CC(=O)Nc1cc(-n2c(=O)ccc3cnc4ccc(-c5ccc(NS(C)(=O)=O)cc5)cc4c32)ccc1C with U2OS.
46%

Find the measured Population Mitotic Cells (%) of N#CCNC(=O)c1ccc(-c2ccnc(Nc3ccc(N4CCOCC4)cc3)n2)cc1 with U2OS as test system.
38%

Find Population Mitotic Cells (%) for Cc1ccc(NC(=O)Nc2cc(C(F)(F)F)ccc2F)cc1Nc1ccc2c(c1)NC(=O)/C2=C\c1ccc[nH]1 on U2OS and write it down.
73%

# return Population Mitotic Cells (%) of CC[C@@H]1C(=O)N(C)c2cnc(Nc3ccc(C(=O)NC4CCN(C)CC4)cc3OC)nc2N1C1CCCC1 (system: U2OS)
6%

====

Test system: HEK-293T
Assay: Multiplex assay against HEK293T
Format: toxicity, cell-based
Details: human, 48 h, 10 µM, compound concentration 10 uM, replicate 1
Assign class by Total Cell Count: not lower than 300 means condition met; lower than 300 means condition not met.

Solved entries:
- molecule: "N#CCNC(=O)c1ccc(-c2ccnc(Nc3ccc(N4CCOCC4)cc3)n2)cc1"
  discrete-label: "condition met"
- molecule: "CCCCN(CC)c1nc(C)nc2c1c(C)cn2-c1c(C)cc(C)cc1C.Cl"
  discrete-label: "condition met"
- molecule: "CC(C)[C@H](CO)Nc1nc(Nc2cccc(Cl)c2)c2ncn(C(C)C)c2n1"
  discrete-label: "condition met"
- molecule: "CN(c1cc(C(F)(F)F)nc(OCCC(=O)O)n1)c1cccc2c1CCC2"
  discrete-label: "condition met"

Now for another entry.
Test whether the molecule CCCCCNC(=N)N/N=C/c1c[nH]c2ccc(OC)cc12.O=C(O)/C=C\C(=O)O [TEGASEROD MALEATE] records Total Cell Count of 300 or higher.
condition not met

====

Test system: Fibroblast
Assay: Multiplex assay against human fibroblast
Type: toxicity, cell-based
Conditions: 24 h, 10 µM, compound concentration 10 uM, replicate 1
reported-endpoint: Population Mitotic Cells (%)
Enter your answer as a number in %; do not include the unit.

Below, 5 compounds whose answers are already recorded.
- compound: "CCCCCNC(=N)N/N=C/c1c[nH]c2ccc(OC)cc12.O=C(O)/C=C\\C(=O)O [TEGASEROD MALEATE]"
  system-tested: "Fibroblast"
  recorded-value: 25
- compound: "C=CC(=O)Nc1cc(-n2c(=O)ccc3cnc4ccc(-c5ccc(NS(C)(=O)=O)cc5)cc4c32)ccc1C"
  system-tested: "Fibroblast"
  recorded-value: 50
- compound: "c1ccc(-c2oc3ncnc(NC[C@@H]4CCCO4)c3c2-c2ccccc2)cc1"
  system-tested: "Fibroblast"
  recorded-value: 23
- compound: "CC[C@@H]1C(=O)N(C)c2cnc(Nc3ccc(C(=O)NC4CCN(C)CC4)cc3OC)nc2N1C1CCCC1"
  system-tested: "Fibroblast"
  recorded-value: 25
- compound: "N#CCNC(=O)c1ccc(-c2ccnc(Nc3ccc(N4CCOCC4)cc3)n2)cc1"
  system-tested: "Fibroblast"
  recorded-value: 51

Indicate the recorded Population Mitotic Cells (%) value for this compound: CN1C(=O)[C@@H](NC(=O)c2cc3ccccc3[nH]2)N=C(c2ccccc2)c2ccccc21 [DEVAZEPIDE]
56

Check the records and state Population Mitotic Cells (%) for CC[C@@]1(O)C(=O)OCc2c1cc1n(c2=O)Cc2cc3ccccc3nc2-1
14

Identify measured Population Mitotic Cells (%) corresponding to CCOc1ccn(-c2ccc(F)cc2)c(=O)c1C(=O)Nc1ccc(Oc2ccnc(N)c2Cl)c(F)c1
19

Answer with the recorded Population Mitotic Cells (%) of CCCc1cc(C)[nH]c(=O)c1CNC(=O)c1cc(-c2ccc(N3CCN(C(C)C)CC3)nc2)cc2c1cnn2C(C)C only.
53

Tell me measured Population Mitotic Cells (%) for CC[C@H](Nc1ncnc2[nH]cnc12)c1nc2cccc(F)c2c(=O)n1-c1ccccc1 please.
26

Read the entry C[C@@H](Oc1cc(-n2cnc3ccc(CN4CCN(C)CC4)cc32)sc1C(N)=O)c1ccccc1C(F)(F)F and write its reported Population Mitotic Cells (%).
40

Entry CC(Cc1ccc(O)c(O)c1)C(C)Cc1ccc(O)c(O)c1 (centres undefined) [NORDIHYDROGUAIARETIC ACID] needs its Population Mitotic Cells (%) filled in; supply it.
12

Fill in Population Mitotic Cells (%) for record CCOC(=O)CCNc1cc(N2CCc3ccccc3CC2)nc(-c2ccccn2)n1
17

Identify measured Population Mitotic Cells (%) associated with NC(=O)c1ccc2nc(-c3ccc(C4(N)CCC4)cc3)c(-c3ccccc3)n2n1
48

Write down Population Mitotic Cells (%) measured for item Cc1ccc(NC(=O)Nc2cc(C(F)(F)F)ccc2F)cc1Nc1ccc2c(c1)NC(=O)/C2=C\c1ccc[nH]1
48

Give recorded Population Mitotic Cells (%). Cc1c(Nc2ccc(S(=O)(=O)N3CCN(C)CC3)cc2F)nc2ccc(Nc3cnn(C4CC4)c3)cn2c1=O
34

====

# Population Apoptotic (%) annotations
Tested on: Fibroblast
Assay: Multiplex assay against human fibroblast
Type: toxicity, cell-based
Conditions: 24 h, 10 µM, compound concentration 10 uM, replicate 1
I only need the number, in %, no unit after it.

Worked examples, 5 compounds total:
- compound: "C[C@@H](Oc1cc(-n2cnc3ccc(CN4CCN(C)CC4)cc32)sc1C(N)=O)c1ccccc1C(F)(F)F"
  unit-abbreviation: "%"
  Population Apoptotic (%): 60
- compound: "CC(/C=C1\\SC(=S)N(CCCC(=O)Nc2ccc(C(=O)O)c(O)c2)C1=O)=C\\c1ccccc1"
  unit-abbreviation: "%"
  Population Apoptotic (%): 53
- compound: "Cc1c(P(=S)(c2ccccc2)c2ccccc2)n2ccccc2[n+]1C/C=C/c1ccccc1.[Br-]"
  unit-abbreviation: "%"
  Population Apoptotic (%): 85
- compound: "CN1C(=O)[C@@H](NC(=O)c2cc3ccccc3[nH]2)N=C(c2ccccc2)c2ccccc21 [DEVAZEPIDE]"
  unit-abbreviation: "%"
  Population Apoptotic (%): 43
- compound: "Cc1ccc(S(=O)(=O)NC2c3ccccc3Oc3ccccc32)cc1"
  unit-abbreviation: "%"
  Population Apoptotic (%): 75

Dear colleague, please send me the reported Population Apoptotic (%) for CC(Cc1ccc(O)c(O)c1)C(C)Cc1ccc(O)c(O)c1 (stereo unspecified) [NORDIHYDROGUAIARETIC ACID] when you can.
87

Return reported Population Apoptotic (%). Input compound: N#CCNC(=O)c1ccc(-c2ccnc(Nc3ccc(N4CCOCC4)cc3)n2)cc1
48
